Target: Dimeric Human Ang-2FD conjugated to human IgG1 (human)
Sequence (chain, as listed by the source limits assumed): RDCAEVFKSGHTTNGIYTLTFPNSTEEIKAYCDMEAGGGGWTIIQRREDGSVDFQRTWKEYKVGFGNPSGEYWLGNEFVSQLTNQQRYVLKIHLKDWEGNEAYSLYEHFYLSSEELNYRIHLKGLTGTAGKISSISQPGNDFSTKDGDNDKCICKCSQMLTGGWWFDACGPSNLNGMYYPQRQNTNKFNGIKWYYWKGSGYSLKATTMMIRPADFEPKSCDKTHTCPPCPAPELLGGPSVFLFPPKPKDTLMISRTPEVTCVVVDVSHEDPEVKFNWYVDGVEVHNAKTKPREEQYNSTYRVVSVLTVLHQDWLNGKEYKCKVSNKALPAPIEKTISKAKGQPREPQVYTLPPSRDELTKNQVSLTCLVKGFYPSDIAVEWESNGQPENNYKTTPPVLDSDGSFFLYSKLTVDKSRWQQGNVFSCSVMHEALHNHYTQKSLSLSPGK
Test: ELISA, 16.67 nM antibody, Ang-2FD-hFc binding to coated hTie-2-mFc
parameter: Percent Blocking of Ang-2FD Binding to Tie-2 (%)
Give your result in % as a bare value.

The measured Percent Blocking of Ang-2FD Binding to Tie-2 associated with H1M732N (antibody, V domains shown) VH: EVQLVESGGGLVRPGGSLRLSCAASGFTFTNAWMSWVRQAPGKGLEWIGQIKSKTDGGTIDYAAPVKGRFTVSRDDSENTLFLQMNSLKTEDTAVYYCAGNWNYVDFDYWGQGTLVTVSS VL: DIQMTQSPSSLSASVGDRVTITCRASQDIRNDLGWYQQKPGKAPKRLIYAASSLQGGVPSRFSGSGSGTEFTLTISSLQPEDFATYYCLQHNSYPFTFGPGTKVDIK reads 97.7

The measured Percent Blocking of Ang-2FD Binding to Tie-2 associated with H1M724N (antibody, V domains shown) VH: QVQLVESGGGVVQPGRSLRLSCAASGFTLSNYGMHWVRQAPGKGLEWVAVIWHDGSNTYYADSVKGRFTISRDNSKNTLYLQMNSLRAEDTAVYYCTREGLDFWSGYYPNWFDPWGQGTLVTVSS VL: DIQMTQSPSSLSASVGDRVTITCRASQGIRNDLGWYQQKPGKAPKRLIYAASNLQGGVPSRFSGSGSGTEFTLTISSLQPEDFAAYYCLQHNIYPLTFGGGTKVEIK reads 99.5

The measured Percent Blocking of Ang-2FD Binding to Tie-2 associated with H2M750N (antibody, V domains shown) VH: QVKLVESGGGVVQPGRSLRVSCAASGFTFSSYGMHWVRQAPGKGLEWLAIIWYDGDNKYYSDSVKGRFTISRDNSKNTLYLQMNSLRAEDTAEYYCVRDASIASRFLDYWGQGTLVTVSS VL: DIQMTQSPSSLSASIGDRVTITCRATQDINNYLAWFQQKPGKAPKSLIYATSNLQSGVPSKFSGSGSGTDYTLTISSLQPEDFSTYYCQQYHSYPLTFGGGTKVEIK reads 99.4
